Numbers sourced from PubChem BioAssay (NCI).

Test system: HS 578T breast
Method Summary: NCI-60 one-dose screen, 48 h
Condition Context: 10 µM
About 83,000 compounds went through this panel and 20% of them were active in at least one assay; those are over-represented in the sample as a whole. Calls of active or inactive are those of the source. The calls were made as follows: active = growth percent below 10; inactive = the rest.
Assign a class; possible classes are active, inactive

Sample answers from the record:
[
  {
    "Molecule": "COc1cc2c(cc1OCCCCCCN1CCN(CC(=O)Nc3ccc(Cl)cc3C(=O)c3ccccc3Cl)CC1)N=CC1CCCN1C2=O (stereo not given)",
    "Category Label": "active"
  },
  {
    "Molecule": "COc1ccc(-c2nnc(-c3c(-c4ccccc4)nc4ncccn34)o2)cc1OC",
    "Category Label": "inactive"
  },
  {
    "Molecule": "c1ccc(CO[C@H]2CO[C@H]3[C@@H]2OC[C@H]3OCc2ccccc2)cc1",
    "Category Label": "inactive"
  },
  {
    "Molecule": "COc1cc(-c2nc(-c3nnc(-c4ccc(F)c(Cl)c4)o3)c3ccccn23)cc(OC)c1OC",
    "Category Label": "inactive"
  }
]

# evaluate next
Incoming: I'd appreciate the recorded outcome for COc1ccc2c(c1)C(=O)c1c-2c(OCCN(C)C)nc2ccccc12 from this test.
Outgoing: inactive
